Assay: in vitro
Conditions: human, KB cells (nasopharyngeal carcinoma)
Description: Toxicity evaluated against human nasopharyngeal carcinoma KB cell line
The following molecules are listed with their measured CC50 values.
# unit: µM | format: bare number

{"columns": ["MOLECULE", "CC50 [µM]"],
 "data": [
  ["CN(CCOc1ccccc1)CCC(O)(P(=O)(O)O)P(=O)(O)O", 312],
  ["CCCCCCCc1ccc(NC(P(=O)(O)O)P(=O)(O)O)cc1", 211],
  ["CCC(C)CNC(P(=O)(O)O)P(=O)(O)O (configuration not stated)", 394],
  ["O=P(O)(O)C(Nc1cccnc1)P(=O)(O)O", 782],
  ["CN(CCCc1ccccc1)CCC(O)(P(=O)(O)O)P(=O)(O)O", 379],
  ["CCn1c2ccccc2c2ccc(NC(P(=O)(O)O)P(=O)(O)O)cc21", 710]
]}

API: the following record is the query input.
The measured CC50 associated with CCCCCCC(CCCC)C(O)(P(=O)(O)O)P(=O)(O)O (configuration not stated) reads 228

* * *

Assay: Therapeutic index was expressed as ratio of LD50 for KB cell line to IC50 against Entamoeba histolytica
Assay type: cell-based
Settings: human, KB cells; read-out: TI
METRIC: selectivity ratio
Write the number on its own, no unit after it.

{"columns": ["SMILES_NOTATION", "selectivity ratio"],
 "data": [
  ["CCCCCCCCNC(P(=O)(O)O)P(=O)(O)O", 2.15]
]}

The measured selectivity ratio associated with `CC(C)N(C(C)C)C(P(=O)(O)O)P(=O)(O)O` reads 4.39

The measured selectivity ratio associated with `O=P(O)(O)C(NC1CCCC1)P(=O)(O)O` reads 17.5

The measured selectivity ratio associated with `O=P(O)(O)C(Nc1ccc(I)cn1)P(=O)(O)O` reads 11.8

* * *

Experiment: Therapeutic index was expressed as ratio of LD50 for KB cell line to IC50 against Plasmodium falciparum
Assay type: cell-based
Conditions: human, KB cells; read-out: TI
Binary call on selectivity ratio: 1 (yes) from 20 upward, 0 (no) beneath that.

{"columns": ["SMILES_NOTATION", "CLASS_NAME"],
 "data": [
  ["O=P(O)(O)C(Nc1ccc(-c2ccccc2)cc1)P(=O)(O)O", "0 (no)"],
  ["CCCCCCCCNC(P(=O)(O)O)P(=O)(O)O", "0 (no)"],
  ["CCCCCCCCCCCCCC(O)(P(=O)(O)O)P(=O)(O)O", "0 (no)"],
  ["CCCCCNC(P(=O)(O)O)P(=O)(O)O", "1 (yes)"],
  ["CCCCc1ccc(NC(P(=O)(O)O)P(=O)(O)O)cc1", "0 (no)"],
  ["O=P(O)(O)C(N1CCOCC1)P(=O)(O)O", "1 (yes)"],
  ["O=P(O)(O)C(O)(Cc1ccccc1)P(=O)(O)O", "1 (yes)"]
]}

Please indicate if the recorded selectivity ratio for `CN(CCc1ccccc1)CCC(O)(P(=O)(O)O)P(=O)(O)O` meets or exceeds 20. 1 (yes)

* * *

Assay: in vitro
Conditions: human, KB cells (nasopharyngeal carcinoma)
Categories are defined by ranges of CC50, namely band A = under 200 µM, band B = from 200 µM up to 500 µM, band C = 500 µM and over

{"columns": ["MOLECULE", "CLASS_NAME"],
 "data": [
  ["CCCCC(O)(P(=O)(O)O)P(=O)(O)O", "band C"]
]}

Band for the recorded CC50 of `O=P(O)(O)C(Nc1ccc(O)nc1)P(=O)(O)O` ? band B

Band for the recorded CC50 of `O=P(O)(O)C(Nc1nc2ccccc2s1)P(=O)(O)O` ? band A

Band for the recorded CC50 of `O=P(O)(O)C(O)(Cc1c[nH]cn1)P(=O)(O)O` ? band A

Band for the recorded CC50 of `O=P(O)(O)C(N1CCCCCC1)P(=O)(O)O` ? band C

Band for the recorded CC50 of `O=P(O)(O)C(N1CCSCC1)P(=O)(O)O` ? band C

Band for the recorded CC50 of `O=P(O)(O)C(Nc1cccc(-c2ccccc2)c1)P(=O)(O)O` ? band C

Band for the recorded CC50 of `O=P(O)(O)C(O)(Cn1ccnc1)P(=O)(O)O` ? band A

Band for the recorded CC50 of `O=P(O)(O)C(N(C1CCCCC1)C1CCCCC1)P(=O)(O)O` ? band C
